# procedure.text: Stability of the working solution (4°C for 1 month)
# Assay type: physicochemical
# experimental.setup: 1.56 ng/mL
value.type: Working solution Accuracy (%)

compound	value.type	assay.result
COc1ccc(-c2coc3cc(O[C@@H]4O[C@H](CO)[C@@H](O)[C@H](O)[C@H]4O)ccc3c2=O)cc1	Working solution Accuracy (%)	84.3%
C[C@@H]1O[C@@H](Oc2c(-c3ccc(O)c(O)c3)oc3cc(O)cc(O)c3c2=O)[C@H](O)[C@H](O)[C@H]1O	Working solution Accuracy (%)	92.6%
O=C(O)C=Cc1ccc(O)cc1	Working solution Accuracy (%)	81.9%
O=C(/C=C/c1ccc(O[C@@H]2O[C@H](CO)[C@@H](O)[C@H](O)[C@H]2O)cc1)c1ccc(O)cc1O	Working solution Accuracy (%)	106.0%
O=C(O)[C@H]1O[C@@H](Oc2cc(O)c3c(=O)cc(-c4ccc(O)cc4)oc3c2)[C@H](O)[C@@H](O)[C@@H]1O [apigenin-7-O-glucuronide]	Working solution Accuracy (%)	83.6%
O=C(O)c1ccc(O)c(O)c1	Working solution Accuracy (%)	82.3%
C[C@]1(OC(=O)/C=C/c2ccccc2)C[C@@H](O)[C@]2(O)C=CO[C@@H](O[C@@H]3O[C@H](CO)[C@@H](O)[C@H](O)[C@H]3O)[C@@H]21 [harpagoside]	Working solution Accuracy (%)	83.8%
